# ASSAY: Percent of drug absorbed by human intestine after oral administration
# Type: ADME, organism-based
# CONDITION SUMMARY: in vivo
Labelling: Fa reported below 60% becomes yes (1); at or above becomes no (0).

Record excerpt, results attached:
INSERT INTO results (compound, class_name) VALUES
  ('C=CCOc1ccccc1OCC(O)CNC(C)C (centres undefined)', 'no (0)'),
  ('Cc1cc(=O)n(-c2ccccc2)n1C [ANTIPYRINE]', 'no (0)');

**Q:** I'd appreciate it if you could check whether "O=C(O)c1cc(/N=N/c2ccc(S(=O)(=O)Nc3ccccn3)cc2)ccc1O" has Fa smaller than 60%.
**A:** yes (1)

**Q:** I'd appreciate it if you could check whether "O=C(O)c1cc(/N=N/c2ccc(O)c(C(=O)O)c2)ccc1O" has Fa smaller than 60%.
**A:** yes (1)

---

# ASSAY: Percent of drug absorbed by human intestine after oral administration
# Type: ADME, organism-based
# CONDITION SUMMARY: in vivo
Binary classification by Fa, with 60% as an inclusive lower bound for criterion met; all other cases are criterion not met.

INSERT INTO measurements (molecule, class_name) VALUES
  ('CC(C)NCC(O)COc1cccc2[nH]ccc12 (stereo not given) [PINDOLOL]', 'criterion met'),
  ('O=C(O)P(=O)(O)O [FOSCARNET]', 'criterion not met'),
  ('Cc1ccccc1N1C(=O)c2cc(S(N)(=O)=O)c(Cl)cc2NC1C (stereo not given) [METOLAZONE]', 'criterion met');

**Q:** Does the molecule OC[C@@H](O)[C@@H](O)[C@H](O)[C@H](O)CO [MANNITOL] have recorded Fa that is 60% or more?
**A:** criterion not met

**Q:** Does the molecule OC[C@H]1O[C@H](OC[C@H]2O[C@H](O[C@]3(CO)O[C@H](CO)[C@@H](O)[C@@H]3O)[C@H](O)[C@@H](O)[C@@H]2O)[C@H](O)[C@@H](O)[C@H]1O [RAFFINOSE] have recorded Fa that is 60% or more?
**A:** criterion not met

---

# ASSAY: Percent of drug absorbed by human intestine after oral administration
# Type: ADME, organism-based
# CONDITION SUMMARY: in vivo
Catalogue of Fa values
Use % as the unit, but write only the number.

**Q:** Record request: Fa value, item CC(=O)Nc1ccc(OCC(O)CNC(C)C)cc1 (stereo not given)
**A:** 95

**Q:** Record request: Fa value, item CCN1CCCC1CNC(=O)c1cc(S(N)(=O)=O)ccc1OC (stereo not given) [SULPIRIDE]
**A:** 36

---

Catalogue of Fa values
# ASSAY: Percent of drug absorbed by human intestine after oral administration
# Format: ADME, organism-based
# CONDITION SUMMARY: in vivo
Use % as the unit, but write only the number.

INSERT INTO measurements (compound, value_units, meas_value) VALUES
  ('C=CCc1ccccc1OCC(O)CNC(C)C (stereo not drawn) [ALPRENOLOL]', '%', 96),
  ('OC[C@H]1O[C@@H](O[C@@H]2[C@@H](CO)O[C@](O)(CO)[C@H]2O)[C@H](O)[C@@H](O)[C@H]1O [LACTULOSE]', '%', 0.6);

Now consider a different compound.
**Q:** Record request: Fa value, item NC[C@H]1CC[C@H](C(=O)O)CC1 [TRANEXAMIC ACID]
**A:** 55
